Biological target: Metallo-beta-lactamase AIM-1 (Pseudomonas aeruginosa, UniProt B5DCA0)
Sequence (B5DCA0 whole entry): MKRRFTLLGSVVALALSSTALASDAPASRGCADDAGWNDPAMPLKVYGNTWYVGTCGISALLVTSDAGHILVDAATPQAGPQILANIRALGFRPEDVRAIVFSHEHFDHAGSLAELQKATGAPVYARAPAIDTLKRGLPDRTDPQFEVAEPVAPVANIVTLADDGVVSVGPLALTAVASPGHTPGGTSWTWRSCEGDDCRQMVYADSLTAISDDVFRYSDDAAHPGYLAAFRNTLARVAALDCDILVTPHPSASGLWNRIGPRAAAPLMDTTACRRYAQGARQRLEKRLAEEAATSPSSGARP
Test: Competitive inhibition of Pseudomonas aeruginosa recombinant AIM1 expressed in Escherichia coli BL21(DE3) using cefuroxime as substrate by UV/Vis multi-plate spectrophotometric method
Please respond with reported pKi for every item in the list.
Numbers only, as −log10 of the molar value.

Hi team, please reply with pKi for each item in this list.
1. N#Cc1c(-c2ccccc2)c(-c2ccccc2)n(Cc2ccccc2)c1NC(=O)c1ccccc1
2. N#Cc1c(-c2ccccc2)c(-c2ccccc2)n(Cc2ccccc2)c1NC(=O)c1ccc([N+](=O)[O-])cc1
3. N#Cc1c(-c2ccccc2)c(-c2ccccc2)n(Cc2ccccc2)c1N

1: 5.80; 2: 4.96; 3: 5.66
